All figures here come from ChEMBL document CHEMBL4483862.

Below: a set of entries, each annotated with reported log10 of IC90.
Tested on: Plasmodium berghei
Assay: Luciferase/luciferin-expressing antifolate-resistant parasites were used to infect a culture of HepG2 cells that were pre-incubated with compounds. Infected hepatocytes emit light due to the luciferase reaction. Assay results are presented as the percent inhibition of light emission compared to control. […]
Assay type: functional
Conditions: sporozoite, read-out: LUCIFERASE INFECTION ASSAY - IC90
Scale: log10; quantity: IC90; unit before log: µM

Cc1oc(C(C)(C)C)cc1-c1cc(NC(=O)Nc2ccccc2C#N)n(-c2cc(C(F)(F)F)cc(C(F)(F)F)c2)n1 :: 0.48
COc1cc(Nc2cncc(-c3ccc(N)cc3)n2)cc(OC)c1OC :: 0.26
O=C(Cn1ncc(Cl)c(Cl)c1=O)Nc1ccc(F)c(F)c1F :: 0.98
O=C(NC1CC1)c1ccc(CN(C2CC2)S(=O)(=O)/C=C/c2ccccc2)cc1 :: 0.61

Query: Looking for the measured log10 of IC90 of O=c1cc(NCCC2=CCCCC2)c2ccccc2o1 , can you help?
Response: 0.51

Query: Same thing, different molecule: COc1ccc(CNc2ncnc3scc(-c4ccccc4)c23)cc1OC
Response: 0.98

Query: Same question for CCC(C)(C)c1ccc(Oc2ccc(NC(=O)Nc3ccccc3OC)cc2)cc1 please.
Response: 0.76

* * *

System: Plasmodium berghei
Test: Luciferase/luciferin-expressing antifolate-resistant parasites were used to infect a culture of HepG2 cells that were pre-incubated with compounds. Infected hepatocytes emit light due to the luciferase reaction. Assay results are presented as the percent inhibition of light emission compared to control. […]
Type: functional
Conditions: sporozoite, PBLUC_HILL_SLOPE 8.31, PBLUC_R_SQUARED 0.597, read-out: LUCIFERASE INFECTION ASSAY - IC50
parameter: IC50 (µM)
Please give a number only; it is taken to be in µM.

Query: May I ask what IC50 has been recorded for CCCCCCN(C(=O)COC(=O)c1c(C)[nH]c(C2CC2)nc1=O)c1nc(-c2ccccc2)cs1 ?
Response: 3.53

* * *

Test system: Plasmodium berghei
Test: Luciferase/luciferin-expressing antifolate-resistant parasites were used to infect a culture of HepG2 cells that were pre-incubated with compounds. Infected hepatocytes emit light due to the luciferase reaction. Assay results are presented as the percent inhibition of light emission compared to control. […]
Type: functional
Settings: sporozoite, HEPG2TOX_HILL_SLOPE 9.84, HEPG2TOX_R_SQUARED 0.0138, PBLUC_HILL_SLOPE 10.3, PBLUC_R_SQUARED 0.574, read-out: LUCIFERASE INFECTION ASSAY - IC50
parameter: pIC50
# reply with the number alone; pIC50 is -log10 of concentration in mol/L

Query: Bench note: what pIC50 did Oc1ccc(Br)cc1/C=C/c1ccc2cccc(O)c2n1 show?
Response: 5.08

* * *

# Lookup of reported IC50 keyed by entry
Test system: Plasmodium berghei
Test: Luciferase/luciferin-expressing antifolate-resistant parasites were used to infect a culture of HepG2 cells that were pre-incubated with compounds. Infected hepatocytes emit light due to the luciferase reaction. Assay results are presented as the percent inhibition of light emission compared to control. […]
Type: functional
Conditions: sporozoite, read-out: LUCIFERASE INFECTION ASSAY - IC50

// worked examples, IC50 included
Cc1ccc(NS(=O)(=O)c2ccc(C(=O)NNC(=O)COc3ccc(C#N)cc3)cc2)cc1 :: > 10 µM
CCOc1ccccc1N/C=C1/C(=O)N(Cc2ccc3c(c2)OCO3)C(=O)c2ccccc21 :: > 10 µM
CC1CCN(Cc2nc3scc(-c4ccccc4)c3c(=O)n2CC(=O)N2CCc3ccccc32)CC1 :: > 10 µM
COc1ccc(Cc2n[nH]c(Nc3cccc(Cl)c3)nc2=O)cc1 :: 1.11 µM
FC(F)(F)c1ccc(/C=N/Nc2c(Cl)cc(C(F)(F)F)cc2Cl)cc1 :: > 8.23 µM

Query: Item under review: CCn1nc(C(=O)OCC(=O)Nc2cc(S(=O)(=O)N3CCCCC3)ccc2Cl)c2ccccc2c1=O . Reported IC50?
Response: > 10 µM

Query: Next record, please: O=C(Nc1ccc(F)cc1)c1nnsc1S(=O)(=O)c1ccc(Cl)cc1
Response: 6.54 µM

Query: Can you check O=c1c2ccccc2c(-c2ccc(F)cc2F)nn1-c1ccccc1 next?
Response: > 9.87 µM

Query: And CC(C)(C)c1ccc(NC(=O)Cc2csc(NC(=O)C3CC3)n2)cc1 ?
Response: > 10 µM

Query: Try the compound N#CC1C(=N)Oc2c(ccc3ccccc23)C1c1ccc(Cl)cc1 (stereo not given)
Response: > 9.92 µM
